method summary: Tmax in Swiss albino mouse at 3 mg/kg, po
Type: ADME, organism-based
Design: dose 3 mg/kg, route oral
details: in vivo
observation type: Tmax

> print(dat)
                                     smiles  observed
1  CCCCNc1ncc2c(-c3ccc(S(=O)(=O)N4CCOCC4)cc3)nn([C@H]3CC[C@H](O)CC3)c2n1    30 min
2  CN1CCN(S(=O)(=O)c2ccc(-c3cn([C@H]4CC[C@H](O)CC4)c4nc(NCCC5CC5)ncc34)c(F)c2)CC1    15 min
3  CN1CCN(Cc2ccc(-c3cn([C@H]4CC[C@H](O)CC4)c4nc(NCCC5CC5)ncc34)cc2)CC1    60 min
4  CCCCNc1ncc2c(-c3ccc(CN4CCN(C)CC4)cc3)cn([C@H]3CC[C@H](O)CC3)c2n1    30 min
5  CCCCNc1ncc2c(-c3ccc(S(=O)(=O)N4CCOCC4)cc3)cn([C@H]3CC[C@H](O)CC3)c2n1    15 min

Entry source: ChEMBL document CHEMBL3351548
